- ASSAY INFO: in vivo
- CONDITION CONTEXT: iv, 1 mg
MEASURED METRIC: Cmax (ng/mL)
Answer with a number only, understood to be in ng/mL.

Read the entry CNC[C@H](O)c1ccc(OC(=O)C(C)(C)C)c(OC(=O)C(C)(C)C)c1 (racemic) [Dipi Solution, dipivefrin] and write its reported Cmax. 11.7

====

- ASSAY INFO: AQST-109 single and repeat dose PK vs EpiPen and 0.3 mg IM (AQ109201)
- Type: in vivo, human
- CONDITION CONTEXT: human, plasma, intramuscular, 0.3 mg, AUC 0-30 min, Repeat Dose (10 min)
MEASURED METRIC: AUC(0-t) (ng·h/mL)
Report as a plain number; the unit ng·h/mL is understood.

Return the recorded AUC(0-t) value; entry: CNC[C@H](O)c1ccc(O)c(O)c1 [Epinephrine IM Injection, epinephrine] 0.067

====

- ASSAY INFO: AQST-109 12 mg residence time / food / swallowed film PK study
- Type: in vivo, human
- CONDITION CONTEXT: human, plasma, im, 0.3 mg, AQST-109 12 mg (N = 48 doses); Epinephrine IM Injection 0.3 mg (N = 48 doses); read-out: Arithmetic Mean Cmax
MEASURED METRIC: Cmax (ng/mL)
Quick reminder: number only, in ng/mL, skip the unit.

Annotate the compound CNC[C@H](O)c1ccc(O)c(O)c1 [Epinephrine IM Injection, epinephrine] with its measured Cmax. 0.397

====

- ASSAY INFO: AQST-109 single and repeat dose PK vs EpiPen and 0.3 mg IM (AQ109201)
- Format: in vivo, human
- CONDITION CONTEXT: human, plasma, intramuscular, 0.3 mg, Repeat Dose (10 min); read-out: Tmax (median) (converted)
MEASURED METRIC: Tmax (min)
Numeric only. Scale: min

Please report the measured Tmax for CNC[C@H](O)c1ccc(O)c(O)c1 [Epinephrine IM Injection, epinephrine] 50

====

- ASSAY INFO: AQST-109 single and repeat dose PK vs EpiPen and 0.3 mg IM (AQ109201)
- Type: in vivo, human
- CONDITION CONTEXT: human, plasma, intramuscular, 0.3 mg, after one dose; read-out: maximum concentration, CMax
MEASURED METRIC: Cmax (ng/mL)
State the answer as a number, implicitly in ng/mL.

Kindly indicate its recorded Cmax. Item: CNC[C@H](O)c1ccc(O)c(O)c1 [Epinephrine IM Injection, epinephrine] 0.489

====

- ASSAY INFO: AQST-109 12 mg residence time / food / swallowed film PK study
- Type: in vivo, human
- CONDITION CONTEXT: human, plasma, im, 0.3 mg; read-out: median time to maximum concentration (Tmax) (converted)
MEASURED METRIC: Tmax (min)
The response must be a number in min with no trailing unit.

State its Tmax: CNC[C@H](O)c1ccc(O)c(O)c1 [Epinephrine IM Injection, epinephrine] 50

====

- ASSAY INFO: AQST-109 12 mg residence time / food / swallowed film PK study
- Type: in vivo, human
- CONDITION CONTEXT: human, plasma, im, 0.3 mg, AUC 0-20 minutes, AQST-109 12 mg (N = 48 doses); Epinephrine IM Injection 0.3 mg (N = 48 doses)
MEASURED METRIC: AUC(0-t) (ng·h/mL)
Write the answer as a number in ng·h/mL, unit excluded.

Determine its reported AUC(0-t): CNC[C@H](O)c1ccc(O)c(O)c1 [Epinephrine IM Injection, epinephrine] 0.023
